These data points were gathered from ChEMBL document CHEMBL1909294.

Tested on: Hepatotoxicity
Conditions: Liver
quantity.measured: HepSE_hepatic failure
Answer as a number with no unit attached.

Known results for compounds:
compound	quantity.measured	measurement
Sc1ncnc2nc[nH]c12 [MERCAPTOPURINE ANHYDROUS]	HepSE_hepatic failure	0
CN1[C@@H]2C[C@@H](OC(=O)[C@H](CO)c3ccccc3)C[C@H]1[C@@H]1O[C@@H]12 [SCOPOLAMINE]	HepSE_hepatic failure	0
COc1ccc2c3c1O[C@H]1C(=O)CC[C@@]4(O)[C@@H](C2)N(C)CC[C@]314 [OXYCODONE]	HepSE_hepatic failure	0
CN(C/C=C/c1ccccc1)Cc1cccc2ccccc12 [NAFTIFINE]	HepSE_hepatic failure	0
CN(C)CCOC(c1ccccc1)c1ccccc1 [DIPHENHYDRAMINE]	HepSE_hepatic failure	0
OCCOCCN1CCN(C2=Nc3ccccc3Sc3ccccc32)CC1 [QUETIAPINE]	HepSE_hepatic failure	0
O=C(O)COCCN1CCN(C(c2ccccc2)c2ccc(Cl)cc2)CC1 (centres undefined) [CETIRIZINE]	HepSE_hepatic failure	0
Clc1ccc2nsnc2c1NC1=NCCN1 [TIZANIDINE]	HepSE_hepatic failure	1

Entry CCN(CC)CC(=O)Nc1c(C)cccc1C [LIDOCAINE] has what HepSE_hepatic failure?
0

---

// reported HepSE_elevated liver function tests per item
Test system: Hepatotoxicity

compound	HepSE_elevated liver function tests
CC(NC(C)(C)C)C(=O)c1cccc(Cl)c1 (stereo unspecified) [BUPROPION]	0
COc1cccc(C2(O)CCCCC2CN(C)C)c1 (stereo unspecified) [TRAMADOL]	0
C[C@@H](O)C(=O)O [D-LACTIC ACID]	0
O=C(O)CCC(=O)O.O=C(O[C@H]1CN2CCC1CC2)N1CCc2ccccc2[C@@H]1c1ccccc1 [SOLIFENACIN SUCCINATE]	0

Lab note: need HepSE_elevated liver function tests for [H]/N=C(\N/C(=N/[H])NCCCCCCNC(=N)NC(=N)Nc1ccc(Cl)cc1)Nc1ccc(Cl)cc1 [CHLORHEXIDINE] on Hepatotoxicity, anyone have it?
0

Lab note: need HepSE_elevated liver function tests for CO[C@H]1/C=C/O[C@@]2(C)Oc3c(C)c(O)c4c(O)c(c(/C=N/N5CCN(C6CCCC6)CC5)c(O)c4c3C2=O)NC(=O)/C(C)=C\C=C\[C@H](C)[C@H](O)[C@@H](C)[C@@H](O)[C@@H](C)[C@H](OC(C)=O)[C@@H]1C [RIFAPENTINE] on Hepatotoxicity, anyone have it?
0

Return HepSE_elevated liver function tests measured with Hepatotoxicity given this compound: COc1ccc(C(=O)Nc2ccccc2CCC2CCCCN2C)cc1 (stereo unspecified) [ENCAINIDE]
0

Value wanted: HepSE_elevated liver function tests (Hepatotoxicity) of entry Cc1cc(C(=O)NNCc2ccccc2)no1 [ISOCARBOXAZID]
0

GET /values?readout=HepSE_elevated liver function tests&system=Hepatotoxicity&item= CC(=O)NC[C@H]1CN(c2ccc(N3CCOCC3)c(F)c2)C(=O)O1 [LINEZOLID]
0

Find HepSE_elevated liver function tests (Hepatotoxicity) for the entry CCOC(=O)CC(SP(=S)(OC)OC)C(=O)OCC (stereo unspecified) [MALATHION]
0

Which measured HepSE_elevated liver function tests belongs to CNCCC(Oc1ccc(C(F)(F)F)cc1)c1ccccc1 (stereo unspecified) [FLUOXETINE] , tested on Hepatotoxicity?
0

Query for Hepatotoxicity: what HepSE_elevated liver function tests does the record show for COc1cc(NS(C)(=O)=O)ccc1Nc1c2ccccc2nc2ccccc12 [AMSACRINE] ?
0
